Hi there, I'd appreciate the recorded switch fluorescence ratio for every entry that follows.
system: ATP; assay: switch fluorescence ratio, 500 uM ATP over buffer (Cy3 cluster intensity, sum of 5 cycles each) (fold (ratio)); higher = stronger signal-on switching upon ATP binding; sequences stand for … in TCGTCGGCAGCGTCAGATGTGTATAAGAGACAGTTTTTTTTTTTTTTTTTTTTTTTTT…TC; settings: aptamer strand: ATP DNA aptamer (quencher-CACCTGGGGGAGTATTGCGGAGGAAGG + anchor), 100 nM annealed; ATP concentration: 500 uM;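 also: ATP exposure 15 min at 22 °C before imaging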
// keep it numeric: no unit symbol after the value

Query: Would you kindly share the measured switch fluorescence ratio for ACGTTAGGGG ?
Reply: 1.14

Query: Quick one: AAAACACGTA
Reply: 1.13

Query: Could you do the same for ACTCGGTCTG , please?
Reply: 1.02

Query: Next record, please: CATTAGGTCT
Reply: 0.981

Query: # repeat for GATAGGCAGG
Reply: 0.998

Query: Request: AGTTAGGTTA
Reply: 1

Query: What do we get for TGAGGGGCGA ?
Reply: 0.989

Query: Another sequence to look at: ACACTCAGAG
Reply: 1.02

Query: Likewise for TTTTTGGCAG ?
Reply: 0.971

Query: How about GTCGGGAGCC ?
Reply: 0.967

Query: Field entry: TTGGTTGGCG
Reply: 0.992

Query: Try the sequence AGTTAGGACA
Reply: 1

Query: Again, but for GACATAAAAG
Reply: 1.03

Query: Another sequence to check: TCCGGTTTTT
Reply: 1.07

---

test system: ATP; test: switch fluorescence ratio, 500 uM ATP over buffer (Cy3 cluster intensity, sum of 5 cycles each) (fold (ratio)); higher = stronger signal-on switching upon ATP binding; sequences stand for … in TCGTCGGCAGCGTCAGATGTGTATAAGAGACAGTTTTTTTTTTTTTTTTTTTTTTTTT…TC; details: aptamer strand: ATP DNA aptamer (quencher-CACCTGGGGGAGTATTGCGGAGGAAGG + anchor), 100 nM annealed; ATP concentration: 500 uM;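 also: ATP exposure 15 min at 22 °C before imaging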
Hi there, I'd appreciate the recorded switch fluorescence ratio for every entry that follows.

Query: Would you kindly share the measured switch fluorescence ratio for GCGTCACGTC ?
Reply: 1.05

Query: For TTGAATATGG then?
Reply: 1.01

Query: Please do the same for GCCAGATTAA as well.
Reply: 0.976

Query: Please do the same for TCATGACGGT as well.
Reply: 1.01

Query: Another sequence to check: TTATTGAGGT
Reply: 0.981

Query: And the next one, TATACTGTTG ?
Reply: 0.976

Query: Same question, CAGTGGTACG this time
Reply: 1.02

Query: How about CTGTGCAGCG ?
Reply: 1.01

Query: Could you do the same for ATTTTAGGTT , please?
Reply: 0.984

Query: Now consider CTGGGTTAGG and answer again.
Reply: 0.973

Query: Also ATGTGAGCGG , if possible.
Reply: 1.01

Query: Input CTGTAAGGCG
Reply: 1.05

Query: What would you report for GCCACGGCGA ?
Reply: 1.02

Query: Next entry: TCATTGTTGG
Reply: 1

Query: Queued: CGACATTGCA
Reply: 1.09

Query: Next sequence: TCAATGTTTG
Reply: 1.01
